- measured target: rat mGlu2 (Rattus norvegicus (Rat))
- Sequence (P31421 19-872): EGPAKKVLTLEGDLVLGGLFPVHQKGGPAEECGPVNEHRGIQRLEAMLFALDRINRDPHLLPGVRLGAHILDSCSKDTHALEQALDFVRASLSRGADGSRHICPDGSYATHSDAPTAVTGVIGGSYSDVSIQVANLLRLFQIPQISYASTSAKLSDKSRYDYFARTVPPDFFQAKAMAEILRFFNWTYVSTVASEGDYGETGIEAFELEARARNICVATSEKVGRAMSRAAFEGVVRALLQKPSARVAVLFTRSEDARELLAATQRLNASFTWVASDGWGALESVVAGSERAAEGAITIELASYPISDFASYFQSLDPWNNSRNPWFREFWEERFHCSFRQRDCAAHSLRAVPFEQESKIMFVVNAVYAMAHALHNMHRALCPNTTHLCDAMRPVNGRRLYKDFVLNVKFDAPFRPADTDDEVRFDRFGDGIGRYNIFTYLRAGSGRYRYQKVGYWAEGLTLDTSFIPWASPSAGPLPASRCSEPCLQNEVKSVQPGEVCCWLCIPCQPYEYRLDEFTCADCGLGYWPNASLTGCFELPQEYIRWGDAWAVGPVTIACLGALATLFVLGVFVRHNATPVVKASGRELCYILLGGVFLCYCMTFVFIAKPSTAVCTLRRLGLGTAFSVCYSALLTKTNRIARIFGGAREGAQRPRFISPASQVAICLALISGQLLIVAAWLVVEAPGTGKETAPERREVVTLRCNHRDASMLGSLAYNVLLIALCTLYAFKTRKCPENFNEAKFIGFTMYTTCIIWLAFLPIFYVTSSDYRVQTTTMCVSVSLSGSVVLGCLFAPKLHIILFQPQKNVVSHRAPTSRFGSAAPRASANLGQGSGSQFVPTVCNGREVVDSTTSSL
- experiment: mGlu2 Ca2+ flux assay
- condition context: Gα15 HEK293 cells stably expressing rat mGlu2; glutamate EC80; >10,000 = no plateau; >30,000 = no measurable activity
parameter: IC50 (nM)
Only the number, expressed in nM, is required.

QUERY: Retrieve IC50 measured for `Cc1ccc(OC2CN(c3cnc(C(N)=O)cc3-c3ccc(F)cc3)C2)cn1` and print it.
RESULT: 1280

QUERY: Retrieve IC50 measured for `COc1ccc(-c2cc(C(N)=O)ncc2OCc2ccc(C(F)(F)F)nc2)c(F)c1` and print it.
RESULT: 440
